Below, each of the binders is paired with its reported kon value.
# test-system: T1, sIL-6R (soluble IL-6 receptor; SBH Sciences) (human, UniProt P08887 20-365)
# T1 construct: also called human IL-6R
# T1 sequence: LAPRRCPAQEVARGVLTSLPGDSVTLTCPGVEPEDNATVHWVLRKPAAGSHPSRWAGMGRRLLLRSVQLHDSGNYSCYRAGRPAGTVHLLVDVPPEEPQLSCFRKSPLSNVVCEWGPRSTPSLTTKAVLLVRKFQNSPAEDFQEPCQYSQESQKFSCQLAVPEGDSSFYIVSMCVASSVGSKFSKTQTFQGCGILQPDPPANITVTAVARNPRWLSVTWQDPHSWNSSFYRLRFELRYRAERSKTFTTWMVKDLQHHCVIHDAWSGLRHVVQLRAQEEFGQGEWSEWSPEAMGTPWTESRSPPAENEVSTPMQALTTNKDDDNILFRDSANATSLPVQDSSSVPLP
# protocol-summary: SPR (BIAcore 3000), antibody on chip, sIL-6R analyte, 25 C

Below are worked cases with known answers.
Incoming: Consider the binder shown here: 226# (antibody, human IgG1, kappa, V domains shown) VH: QVQLQESGPGLVRPSQTLSLTCTVSGYSITSDHAWSWVRQPPGRGLEWIGYISYSGMITYNPSLKSRVTMLRDTSKNQFSLRLSSVTAADTAVYYCARCLARATAMDYWGQGSLVTVSS VL: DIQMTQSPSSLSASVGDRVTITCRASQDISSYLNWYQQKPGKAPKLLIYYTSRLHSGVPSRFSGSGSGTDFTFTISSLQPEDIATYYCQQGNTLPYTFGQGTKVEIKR What is its recorded kon?
Outgoing: 156000 M⁻¹ s⁻¹

Incoming: Now this one: 236# (antibody, human IgG1, kappa, V domains shown) VH: QVQLQESGPGLVRPSQTLSLTCTVSGYSITSDHAWSWVRQPPGRGLEWIGYISYSGMTTYNPSLKSRVTMLRDTSKNQFSLRLSSVTAADTAVYYCARCLARATAMDYWGQGSLVTVSS VL: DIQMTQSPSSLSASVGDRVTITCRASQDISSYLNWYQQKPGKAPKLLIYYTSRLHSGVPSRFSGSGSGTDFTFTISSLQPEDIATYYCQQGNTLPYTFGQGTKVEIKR
Outgoing: 185000 M⁻¹ s⁻¹

Incoming: Now this one: 244# (antibody, human IgG1, kappa, V domains shown) VH: QVQLQESGPGLVRPSQTLSLTCTVSGYSITSDHAWSWVRQPPGRGLEWIGYISYSGITTYNPSLKSRVTMLRDTSKNQFSLRLSSVTAADTAVYYCARTLARMTAIDFWGQGSLVTVSS VL: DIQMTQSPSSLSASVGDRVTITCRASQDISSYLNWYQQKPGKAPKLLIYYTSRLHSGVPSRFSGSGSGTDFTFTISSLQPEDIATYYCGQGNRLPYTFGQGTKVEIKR
Outgoing: 140000 M⁻¹ s⁻¹

Incoming: Now this one: 59# (antibody, human IgG1, kappa, V domains shown, also called Sample # 59) VH: QVQLQESGPGLVRPSQTLSLTCTVSGYSITSDHAWSWVRQPPGRGLEWIGFISYSGMTTYNPSLKSRVTMLRDTSKNQFSLRLSSVTAADTAVYYCARCLARTTAMDYWGQGSLVTVSS VL: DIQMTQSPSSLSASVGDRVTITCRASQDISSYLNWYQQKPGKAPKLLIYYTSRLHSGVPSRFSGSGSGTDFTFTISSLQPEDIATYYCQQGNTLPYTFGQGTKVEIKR
Outgoing: 172000 M⁻¹ s⁻¹

***
Incoming: Consider the binder shown here: 246# (antibody, human IgG1, kappa, V domains shown) VH: QVQLQESGPGLVRPSQTLSLTCTVSGYSITSDHAWSWVRQPPGRGLEWIGYISYSGMITYNPSLKSRVTMLRDTSKNQFSLRLSSVTAADTAVYYCARTLARTTAIDFWGQGSLVTVSS VL: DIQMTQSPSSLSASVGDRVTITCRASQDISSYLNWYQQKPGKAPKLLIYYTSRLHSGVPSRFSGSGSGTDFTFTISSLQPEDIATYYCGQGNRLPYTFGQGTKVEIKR What is its recorded kon?
Outgoing: 125000 M⁻¹ s⁻¹

Incoming: Now this one: 218# (antibody, human IgG1, kappa, V domains shown) VH: QVQLQESGPGLVRPSQTLSLTCTVSGYSITSDHAWSWVRQPPGRGLEWIGYISYSGMITYNPSLKSRVTMLRDTSKNQFSLRLSSVTAADTAVYYCARCLARMTAIDFWGQGSLVTVSS VL: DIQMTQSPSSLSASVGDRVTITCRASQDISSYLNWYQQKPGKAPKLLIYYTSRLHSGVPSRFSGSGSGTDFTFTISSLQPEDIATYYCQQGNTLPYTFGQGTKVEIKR
Outgoing: 107000 M⁻¹ s⁻¹

Incoming: Now this one: 224# (antibody, human IgG1, kappa, V domains shown) VH: QVQLQESGPGLVRPSQTLSLTCTVSGYSITSDHAWSWVRQPPGRGLEWIGYISYSGMTTYNPSLKSRVTMLRDTSKNQFSLRLSSVTAADTAVYYCARCLARTTAMDYWGQGSLVTVSS VL: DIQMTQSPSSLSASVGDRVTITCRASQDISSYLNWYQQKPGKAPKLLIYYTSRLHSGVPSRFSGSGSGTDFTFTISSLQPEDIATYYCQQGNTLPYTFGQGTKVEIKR
Outgoing: 160000 M⁻¹ s⁻¹
